Recorded values, source the supplement of paper PMC6555819.

Catalogue of PBM binding z-score values
Tested on: PPARg:RXRa IVT, anti-PPARg (NR concentration 270 nM, RXRa partner concentration 90 nM)
Method Description: PBM binding z-score (relative to random genomic background probes); higher = stronger binding; sequences stand for … in GC…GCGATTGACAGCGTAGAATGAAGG
Measured Property: PBM binding z-score

>>> print(df.to_string())
                              residues    measured_property  reported_result
 0  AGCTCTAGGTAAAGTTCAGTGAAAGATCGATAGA  PBM binding z-score             1.47
 1  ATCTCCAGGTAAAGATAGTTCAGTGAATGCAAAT  PBM binding z-score            0.419
 2  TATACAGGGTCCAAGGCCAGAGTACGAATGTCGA  PBM binding z-score            0.889
 3  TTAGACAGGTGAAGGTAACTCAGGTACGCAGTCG  PBM binding z-score             1.49
 4  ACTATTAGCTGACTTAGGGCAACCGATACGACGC  PBM binding z-score             0.75
 5  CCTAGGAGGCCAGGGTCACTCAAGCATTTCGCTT  PBM binding z-score             1.11
 6  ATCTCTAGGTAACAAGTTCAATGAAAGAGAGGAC  PBM binding z-score             3.31
 7  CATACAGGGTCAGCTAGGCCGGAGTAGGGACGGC  PBM binding z-score             2.06
 8  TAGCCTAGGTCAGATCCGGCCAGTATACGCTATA  PBM binding z-score             1.52
 9  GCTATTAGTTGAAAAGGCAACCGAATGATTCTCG  PBM binding z-score            -0.52
10  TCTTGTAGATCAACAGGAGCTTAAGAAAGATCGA  PBM binding z-score            0.103
11  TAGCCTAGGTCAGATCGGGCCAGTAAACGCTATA  PBM binding z-score             1.24
12  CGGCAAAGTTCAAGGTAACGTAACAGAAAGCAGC  PBM binding z-score             1.56
13  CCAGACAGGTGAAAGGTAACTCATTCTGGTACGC  PBM binding z-score             3.01
14  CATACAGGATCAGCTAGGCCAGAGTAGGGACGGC  PBM binding z-score           -0.208
15  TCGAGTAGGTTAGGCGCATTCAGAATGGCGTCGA  PBM binding z-score            0.832
16  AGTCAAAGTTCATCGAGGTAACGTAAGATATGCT  PBM binding z-score             3.44
17  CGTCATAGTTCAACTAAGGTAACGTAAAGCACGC  PBM binding z-score             1.07
18  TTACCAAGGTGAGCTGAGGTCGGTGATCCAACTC  PBM binding z-score              1.6
19  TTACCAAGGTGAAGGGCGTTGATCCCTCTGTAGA  PBM binding z-score             2.43
20  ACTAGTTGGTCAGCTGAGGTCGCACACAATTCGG  PBM binding z-score             1.57
21  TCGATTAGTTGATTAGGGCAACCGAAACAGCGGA  PBM binding z-score             1.02
22  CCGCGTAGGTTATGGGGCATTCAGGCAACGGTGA  PBM binding z-score            0.593
23  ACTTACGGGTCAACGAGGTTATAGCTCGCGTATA  PBM binding z-score             4.16
24  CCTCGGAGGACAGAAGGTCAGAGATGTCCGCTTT  PBM binding z-score            0.124
25  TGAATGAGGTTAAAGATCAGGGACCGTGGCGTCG  PBM binding z-score             3.65

---

Reported PBM binding z-score values for the following sequences.
System: PPARg homodimer (NR concentration 180 nM)
Method Description: PBM binding z-score (relative to random genomic background probes); higher = stronger binding; sequences stand for … in GC…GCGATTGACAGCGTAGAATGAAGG
Measured Property: PBM binding z-score

                              residues    measured_property  reported_result
 0  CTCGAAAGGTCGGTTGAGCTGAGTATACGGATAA  PBM binding z-score           0.0115
 1  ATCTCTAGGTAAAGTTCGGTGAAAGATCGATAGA  PBM binding z-score            0.996
 2  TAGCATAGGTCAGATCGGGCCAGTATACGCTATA  PBM binding z-score            0.679
 3  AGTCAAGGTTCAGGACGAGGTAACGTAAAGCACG  PBM binding z-score             0.61
 4  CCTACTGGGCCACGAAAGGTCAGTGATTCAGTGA  PBM binding z-score             3.12
 5  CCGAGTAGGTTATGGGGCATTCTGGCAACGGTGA  PBM binding z-score             1.24
 6  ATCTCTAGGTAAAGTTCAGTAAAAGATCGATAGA  PBM binding z-score             2.05
 7  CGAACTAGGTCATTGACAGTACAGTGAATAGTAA  PBM binding z-score             1.89
 8  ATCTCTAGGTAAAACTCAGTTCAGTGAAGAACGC  PBM binding z-score             1.22
 9  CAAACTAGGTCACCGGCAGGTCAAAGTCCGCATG  PBM binding z-score             4.83
10  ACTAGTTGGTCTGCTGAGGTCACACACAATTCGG  PBM binding z-score             2.32
11  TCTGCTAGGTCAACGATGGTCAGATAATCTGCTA  PBM binding z-score             1.82
12  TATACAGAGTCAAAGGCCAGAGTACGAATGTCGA  PBM binding z-score            0.172
13  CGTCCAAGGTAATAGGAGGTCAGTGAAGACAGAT  PBM binding z-score             1.61
14  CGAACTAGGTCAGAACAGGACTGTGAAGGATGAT  PBM binding z-score             0.61
15  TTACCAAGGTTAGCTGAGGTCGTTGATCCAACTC  PBM binding z-score            0.103
16  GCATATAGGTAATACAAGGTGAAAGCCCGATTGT  PBM binding z-score            0.757
17  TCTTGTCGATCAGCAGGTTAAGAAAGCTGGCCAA  PBM binding z-score            0.131
18  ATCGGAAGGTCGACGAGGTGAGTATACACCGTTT  PBM binding z-score            0.248
19  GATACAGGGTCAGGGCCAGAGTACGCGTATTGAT  PBM binding z-score             1.64
20  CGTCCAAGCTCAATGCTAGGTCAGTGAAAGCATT  PBM binding z-score           -0.137
21  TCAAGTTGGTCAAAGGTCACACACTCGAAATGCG  PBM binding z-score             5.18
22  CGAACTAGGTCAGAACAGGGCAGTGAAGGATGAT  PBM binding z-score             1.19
23  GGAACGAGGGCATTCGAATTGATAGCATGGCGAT  PBM binding z-score           -0.045
24  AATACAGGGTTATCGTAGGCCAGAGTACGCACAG  PBM binding z-score             0.97
25  CCTACTGGGCCAAATAGGTCATTGATGCCGATAA  PBM binding z-score             1.27
26  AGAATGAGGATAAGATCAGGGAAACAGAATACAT  PBM binding z-score            0.327
27  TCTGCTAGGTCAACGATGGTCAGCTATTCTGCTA  PBM binding z-score            0.972
28  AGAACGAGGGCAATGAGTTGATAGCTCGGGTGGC  PBM binding z-score           -0.195
29  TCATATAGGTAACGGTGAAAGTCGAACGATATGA  PBM binding z-score          -0.0318
30  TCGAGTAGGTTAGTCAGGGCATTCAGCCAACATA  PBM binding z-score            0.613
31  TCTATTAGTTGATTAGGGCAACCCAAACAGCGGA  PBM binding z-score            0.811
32  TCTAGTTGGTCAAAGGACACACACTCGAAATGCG  PBM binding z-score              1.9
33  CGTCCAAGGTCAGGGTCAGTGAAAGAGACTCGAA  PBM binding z-score             2.66
34  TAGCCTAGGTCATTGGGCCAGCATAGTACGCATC  PBM binding z-score            0.524
35  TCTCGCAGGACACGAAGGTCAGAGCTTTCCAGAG  PBM binding z-score            0.787
36  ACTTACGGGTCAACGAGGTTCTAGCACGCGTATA  PBM binding z-score             2.64
37  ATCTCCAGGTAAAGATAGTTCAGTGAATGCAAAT  PBM binding z-score            0.798
38  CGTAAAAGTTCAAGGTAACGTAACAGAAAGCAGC  PBM binding z-score             2.19
39  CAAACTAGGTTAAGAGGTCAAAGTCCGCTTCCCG  PBM binding z-score             4.58
40  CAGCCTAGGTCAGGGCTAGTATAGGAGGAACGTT  PBM binding z-score             0.47
41  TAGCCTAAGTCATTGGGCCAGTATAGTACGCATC  PBM binding z-score           -0.452
42  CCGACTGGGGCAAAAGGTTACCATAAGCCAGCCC  PBM binding z-score             1.06
43  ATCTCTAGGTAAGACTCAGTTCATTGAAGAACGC  PBM binding z-score             1.13
44  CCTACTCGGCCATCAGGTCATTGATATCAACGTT  PBM binding z-score             2.27
45  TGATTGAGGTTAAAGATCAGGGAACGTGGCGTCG  PBM binding z-score            0.865
46  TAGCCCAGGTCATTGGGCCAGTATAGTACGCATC  PBM binding z-score             1.51
47  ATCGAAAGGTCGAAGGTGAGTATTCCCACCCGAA  PBM binding z-score             2.58
48  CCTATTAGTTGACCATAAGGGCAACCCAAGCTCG  PBM binding z-score             1.63
49  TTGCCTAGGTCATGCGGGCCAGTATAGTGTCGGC  PBM binding z-score            0.753
50  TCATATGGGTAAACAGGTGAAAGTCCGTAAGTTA  PBM binding z-score            0.322
